The origin of these recorded values is patent US20160297884A1.

Target entity: T1, Cynomolgus monkey BCMA (cynomolgus monkey)
T1 construct: Soluble analyte in SPR; also called cyBCMA; Cyno BCMA
Assay method text: SPR, IgG immobilised, cyno BCMA analyte
Measured parameter: kon (M⁻¹ s⁻¹)
Kindly provide the numeric value in M⁻¹ s⁻¹ only, without the unit symbol.

Previously resolved entries follow.
[
  {
    "Binder": "COMBO_Rd4_0.6nM_C04 (antibody, V domains shown, IgG) VH: EVQLLESGGGLVQPGGSLRLSCAASGFTFSSYPMSWVRQAPGKGLEWVSAHIGSGGSTYYADSVKGRFTISRDNSKNTLYLQMNSLRAEDTAVYYCARYWPMDSWGQGTLVTVSS VL: EIVLTQSPGTLSLSPGERATLSCRASQSVSSTYLAWYQQKPGQAPRLLMYDASIRATGIPDRFSGSGSGTDFTLTISRLEPEDFAVYYCQQYQSWPLTFGQGTKVEIK",
    "U": "M⁻¹ s⁻¹",
    "kon": "3.52e+06"
  },
  {
    "Binder": "COMBO_Rd4_0.6nM_C17 (antibody, V domains shown, IgG) VH: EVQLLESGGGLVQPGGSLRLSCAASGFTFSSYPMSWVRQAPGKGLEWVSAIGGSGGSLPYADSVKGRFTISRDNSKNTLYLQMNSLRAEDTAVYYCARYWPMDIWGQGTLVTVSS VL: EIVLTQSPGTLSLSPGERATLSCRASQGISSTYLAWYQQKPGQAPRLLMYDASIRATGIPDRFSGSGSGTDFTLTISRLEPEDFAVYYCQQYAYWPLTFGQGTKVEIK",
    "U": "M⁻¹ s⁻¹",
    "kon": "3.06e+06"
  }
]

Then this binder:
### Prompt Consider the binder shown here: A02_Rd4_6nM_C08 (antibody, V domains shown, IgG) VH: EVQLLESGGGLVQPGGSLRLSCAASGFTFSSYAMNWVRQAPGKGLEWVSAILDSGGSTYYADSVKGRFTISRDNSKNTLYLQMNSLRAEDTAVYYCARYWPMSPWGQGTLVTVSS VL: EIVLTQSPGTLSLSPGERATLSCRASQSVSFLYLAWYQQKPGQAPRLLMYDASIRATGIPDRFSGSGSGTDFTLTISRLEPEDFAVYYCQQYGSWPLTFGQGTKVEIK What is its recorded kon?
### Response 2.23e+06
